The origin of these recorded values is patent US5730876A.

- Assay info: Solubility in water of chitosan oligosaccharides (Table 1)
- Format: physicochemical
- Measurement parameters: in water; read-out: Solubility (% in water)
Where a name gives a salt, the structure may show the parent alone.
Readout name: solubility (mg/mL)

N[C@H]1[C@H](O[C@H]2[C@H](O)[C@@H](N)[C@H](O[C@H]3[C@H](O)[C@@H](N)C(O)O[C@@H]3CO)O[C@@H]2CO)O[C@H](CO)[C@@H](O)[C@@H]1O (some centres unmarked) [Chitotriose HCl]
1770
N[C@H]1[C@H](O[C@H]2[C@H](O)[C@@H](N)[C@H](O[C@H]3[C@H](O)[C@@H](N)[C@H](O[C@H]4[C@H](O)[C@@H](N)[C@H](O[C@H]5[C@H](O)[C@@H](N)C(O)O[C@@H]5CO)O[C@@H]4CO)O[C@@H]3CO)O[C@@H]2CO)O[C@H](CO)[C@@H](O)[C@@H]1O (some centres unmarked) [Chitopentose HCl]
860
N[C@H]1[C@H](O[C@H]2[C@H](O)[C@@H](N)[C@H](O[C@H]3[C@H](O)[C@@H](N)[C@H](O[C@H]4[C@H](O)[C@@H](N)[C@H](O[C@H]5[C@H](O)[C@@H](N)[C@H](O[C@H]6[C@H](O)[C@@H](N)C(O)O[C@@H]6CO)O[C@@H]5CO)O[C@@H]4CO)O[C@@H]3CO)O[C@@H]2CO)O[C@H](CO)[C@@H](O)[C@@H]1O (some centres unmarked) [Chitohexose HCl]
680
N[C@H]1[C@H](O[C@H]2[C@H](O)[C@@H](N)C(O)O[C@@H]2CO)O[C@H](CO)[C@@H](O)[C@@H]1O (some centres unmarked) [Chitobiose HCl]
1900
N[C@H]1[C@H](O[C@H]2[C@H](O)[C@@H](N)[C@H](O[C@H]3[C@H](O)[C@@H](N)[C@H](O[C@H]4[C@H](O)[C@@H](N)C(O)O[C@@H]4CO)O[C@@H]3CO)O[C@@H]2CO)O[C@H](CO)[C@@H](O)[C@@H]1O (some centres unmarked) [Chitotetrose HCl]
1580
